System: 323965-272-R-J2-PDC complex spheroid growth, % test/control
measurement.notes: Anticancer human tumor 323965-272-R-J2-PDC patient-derived pancreatic carcinoma cell line growth inhibition [Asc]
assay.context: second compound 0.0316 µM; first compound 0.316 µM; hits give low values
Description: Multicellular complex tumor spheroid response to apoptosis pathway targeting inhibitors Alrizomadlin, Pelcitoclax, and Dasminapant in combination with a variety of drugs and investigational agents in selected tumor cell lines […] Compounds. […] If the clinical Cmax for an agent had not been determined, the highest concentration tested was 10 microM. […]
Attribute: viability, T/C

compound: O=C(c1ccc(F)c(F)c1Nc1ccc(I)cc1F)N1CC(O)([C@@H]2CCCCN2)C1 + Cc1c(S(C)(=O)=O)c(-c2cc(F)cc(N3CCN(c4ccc(NS(=O)(=O)c5ccc(NC(CCN6CCC(C(=O)OCCCP(=O)(O)O)CC6)CSc6ccccc6)c(S(=O)(=O)C(F)(F)F)c5)cc4)CC3)c2)c(-c2ccc(Cl)cc2)n1C(C)C
viability, T/C / %: 35.2

compound: C=CC(=O)N1CCN(c2nc(=O)n(-c3c(C)ccnc3C(C)C)c3nc(-c4c(O)cccc4F)c(F)cc23)C(C)C1 (stereo not drawn) + Cc1c(S(C)(=O)=O)c(-c2cc(F)cc(N3CCN(c4ccc(NS(=O)(=O)c5ccc(NC(CCN6CCC(C(=O)OCCCP(=O)(O)O)CC6)CSc6ccccc6)c(S(=O)(=O)C(F)(F)F)c5)cc4)CC3)c2)c(-c2ccc(Cl)cc2)n1C(C)C
viability, T/C / %: 65.9

compound: CCN1CCN(Cc2ccc(Nc3ncc(F)c(-c4cc(F)c5nc(C)n(C(C)C)c5c4)n3)nc2)CC1 + Cc1c(S(C)(=O)=O)c(-c2cc(F)cc(N3CCN(c4ccc(NS(=O)(=O)c5ccc(NC(CCN6CCC(C(=O)OCCCP(=O)(O)O)CC6)CSc6ccccc6)c(S(=O)(=O)C(F)(F)F)c5)cc4)CC3)c2)c(-c2ccc(Cl)cc2)n1C(C)C
viability, T/C / %: 70.5

----------
System: 323965-272-R-J2-PDC complex spheroid growth, % test/control
measurement.notes: Anticancer human tumor 323965-272-R-J2-PDC cell line growth inhibition [Asc];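 note: compound exposure lasted 7 days starting three days after spheroid seeding; 100% = DMSO vehicle control wells with viability set relative to vehicle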
assay.context: second compound 1 µM; first compound 1 µM; hits give low values
measurement.label: viability, T/C (%)

compound: C#Cc1c(F)ccc2cc(O)cc(-c3ncc4c(N5CC6CCC(C5)N6)nc(OCC56CCCN5CC(F)C6)nc4c3F)c12 (stereo unspecified) + CNC(C)C(=O)NC1CN(S(=O)(=O)c2cccc(S(=O)(=O)N3CCC4CCC(C(=O)NC(c5ccccc5)c5ccccc5)N4C(=O)C(NC(=O)C(C)NC)C3)c2)CCC2CCC(C(=O)NC(c3ccccc3)c3ccccc3)N2C1=O
measurement.label: viability, T/C
unit.tag: %
number: 91

----------
Test system: 323965-272-R-J2-PDC complex spheroid growth, % test/control
measurement.notes: Anticancer human tumor 323965-272-R-J2-PDC cell line growth inhibition [Asc];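 note: compound exposure lasted 7 days starting three days after spheroid seeding; 100% = DMSO vehicle control wells with viability set relative to vehicle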
assay.context: second compound 0.1 µM; first compound 0.1 µM; hits give low values
Attribute: viability, T/C

molecule: C=C(F)C(=O)N1CCN(c2nc(OCC3CCCN3C)nc3c2CCN(c2cccc4cccc(Cl)c24)C3)CC1CC#N (stereo not drawn) + CNC(C)C(=O)NC1CN(S(=O)(=O)c2cccc(S(=O)(=O)N3CCC4CCC(C(=O)NC(c5ccccc5)c5ccccc5)N4C(=O)C(NC(=O)C(C)NC)C3)c2)CCC2CCC(C(=O)NC(c3ccccc3)c3ccccc3)N2C1=O
viability, T/C: 46.7%
//
molecule: O=C(c1cc(Cc2n[nH]c(=O)c3ccccc23)ccc1F)N1CCN(C(=O)C2CC2)CC1 + CNC(C)C(=O)NC1CN(S(=O)(=O)c2cccc(S(=O)(=O)N3CCC4CCC(C(=O)NC(c5ccccc5)c5ccccc5)N4C(=O)C(NC(=O)C(C)NC)C3)c2)CCC2CCC(C(=O)NC(c3ccccc3)c3ccccc3)N2C1=O
viability, T/C: 91.9%
//
molecule: COc1c(OCCCN2CCOCC2)ccc2c3n(c(=NC(=O)c4cnc(N)nc4)nc12)CCN3 + Cc1c(S(C)(=O)=O)c(-c2cc(F)cc(N3CCN(c4ccc(NS(=O)(=O)c5ccc(NC(CCN6CCC(C(=O)OCCCP(=O)(O)O)CC6)CSc6ccccc6)c(S(=O)(=O)C(F)(F)F)c5)cc4)CC3)c2)c(-c2ccc(Cl)cc2)n1C(C)C
viability, T/C: 60.1%
